TGI overview
# System: TK-10 renal
# method-summary: NCI tumour cell line growth inhibition, 48 h

Known TGI results, listed for orientation:
- structure: "N#Cc1[nH]c(=O)n(-c2ccc(Cl)cc2)c1N"
  target-system: "TK-10 renal"
  value-reported: "> 10 µM"
- structure: "O=C(N/N=C1\\CCc2ccccc2C1)N/N=C1\\CCc2ccccc2C1"
  target-system: "TK-10 renal"
  value-reported: "> 10 µM"
- structure: "Nc1cc(-c2ccccc2)ccc1O"
  target-system: "TK-10 renal"
  value-reported: "> 100 µM"

--- query ---
Give the reported value of TGI for this record: N=C(N)SCCc1cn2ccccc2n1
> 100 µM

----------
# Tested on: PC-3 prostate
# method-summary: NCI tumour cell line growth inhibition, 48 h
measured-parameter: TGI

Known TGI results, listed for orientation:
- compound: "c1ccc(C2SCC3=Nc4ccccc4CN32)cc1 (configuration not stated)"
  target-system: "PC-3 prostate"
  value-reported: "> 100 µM"
- compound: "COc1cc(OC)c2c(c1OC)OCC(Cc1ccc(O)cc1)C2=O (configuration not stated)"
  target-system: "PC-3 prostate"
  value-reported: "> 25 µM"
- compound: "CC(C)(C)c1ccc(CN2CCN(C(c3ccccc3)c3ccc(Cl)cc3)CC2)cc1 (configuration not stated)"
  target-system: "PC-3 prostate"
  value-reported: "> 100 µM"

With PC-3 prostate as the test system, provide measured TGI for this compound: Cc1cccc(Nc2cn(COCc3ccccc3)c(=O)[nH]c2=O)c1
> 100 µM

With PC-3 prostate as the test system, provide measured TGI for this compound: COc1cc(OC)c2c(=O)c(O)c(-c3ccc(OC)c(OC)c3)oc2c1
> 100 µM

----------
TGI overview
# Test system: SK-MEL-5 melanoma
# method-summary: NCI tumour cell line growth inhibition, 48 h
Write the number in µM without appending the unit.

Known TGI results, listed for orientation:
- structure: "Nc1ccc2c(c1)C(=O)c1c(F)cccc1-2"
  measured-parameter: "TGI"
  value-reported: 95.1
- structure: "CC(=O)c1ccc(Oc2ccc(/C(C)=N\\N=C(N)N)cc2)cc1"
  measured-parameter: "TGI"
  value-reported: 6.98
- structure: "C(=C1c2ccccc2-c2ccccc21)c1ccccn1"
  measured-parameter: "TGI"
  value-reported: 26.5

Give the reported value of TGI for this record: CCOc1ccccc1/C=C1\NC(=O)N(/C=C2\C(=O)Oc3ccccc3C2=O)C1=O
57.9

----------
# Test system: HOP-62 NSCLC
# method-summary: NCI tumour cell line growth inhibition, 48 h
measured-parameter: TGI

Give the reported value of TGI for this record: COc1ccc(C(O)CNC(=O)c2ccccc2)cc1 (stereo not drawn)
> 100 µM

Give the reported value of TGI for this record: COC(CCP(=O)(c1ccccc1)c1ccccc1)(C(=O)c1ccccc1)c1ccccc1 (stereo not drawn)
24.8 µM

Give the reported value of TGI for this record: CC(=O)O[C@H]1CC[C@]2(C)[C@H]3CC[C@@H]4[C@H]5[C@H](C(C)C)CC[C@]5(C(=O)OCC(CO)(CO)N=C(N)N)CC[C@@]4(C)[C@]3(C)CC[C@H]2C1(C)C
3.56 µM

----------
# System: SK-OV-3 ovarian
# method-summary: NCI tumour cell line growth inhibition, 48 h; in the data active = GI50 below about 0.43 µM; inactive = the rest
Return exactly one item of active, inactive

- structure: "COc1cccc(/C=N\\Nc2ccc([N+](=O)[O-])cn2)c1O"
  target-system: "SK-OV-3 ovarian"
  qualitative-label: "inactive"

Record lookup: outcome of this test for Cn1c(=O)cc2c3c(c(NCCCO)ccc31)C(=O)c1ccccc1-2 ?
inactive

Record lookup: outcome of this test for CCc1c2c(nc3cc4c(cc13)OCO4)-c1cc3c(c(=O)n1C2)COC(=O)[C@@]3(CC)OC(=O)CN ?
active

Record lookup: outcome of this test for CN1CCN(c2ccc3c4c(cccc24)C(=O)N(CCN2CCN(CCCN4CCN(CCN5C(=O)c6cccc7c(N8CCN(C)CC8)ccc(c67)C5=O)CC4)CC2)C3=O)CC1 ?
inactive

Record lookup: outcome of this test for O=C1c2ccccc2C(=O)N1c1ccc(S(=O)(=O)Nc2ncccn2)cc1 ?
inactive
